SYSTEM UNDER TEST: T1, GLP-1 receptor present in the plasma membranes isolated from RINm5F cells (UniProt P32301 22-463, limits assumed)
T1 sequence (looked up): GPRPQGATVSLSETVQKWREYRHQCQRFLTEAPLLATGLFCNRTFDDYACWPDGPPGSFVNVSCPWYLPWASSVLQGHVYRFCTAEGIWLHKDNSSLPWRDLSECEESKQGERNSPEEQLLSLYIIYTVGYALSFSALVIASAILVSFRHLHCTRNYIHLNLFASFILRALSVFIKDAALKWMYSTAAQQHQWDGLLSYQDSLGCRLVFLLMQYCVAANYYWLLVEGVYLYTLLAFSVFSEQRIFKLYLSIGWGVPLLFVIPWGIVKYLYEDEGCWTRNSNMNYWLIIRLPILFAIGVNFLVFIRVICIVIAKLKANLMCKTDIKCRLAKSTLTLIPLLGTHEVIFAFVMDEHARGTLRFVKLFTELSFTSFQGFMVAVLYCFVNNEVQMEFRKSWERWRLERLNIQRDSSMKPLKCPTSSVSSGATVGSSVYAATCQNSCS
RUN DESCRIPTION: cell-based or functional assay
Ends that are not written are not given here. * marks the point of attachment. Palmitoyl = CCCCCCCCCCCCCCCC(=O)*
Known % GLP1 max, cAMP SPA in RINm5F cells of a selection of binders
OBSERVED PROPERTY: % GLP1 max, cAMP SPA in RINm5F cells

[[record]]
binder = "HSQGTFTSDYAKYLDARRAKEFIAWLVCGRG [G74]"
experimental_result = "88.7%"

[[record]]
binder = "HSQGTFTSDYAKYLDARRAKEFIAWLVKGCG [G76]"
experimental_result = "85%"

[[record]]
binder = "HSQGTFTSDYAKYLDARRACEFIAWLVKGRG [G71]"
experimental_result = "93.3%"

[[record]]
binder = "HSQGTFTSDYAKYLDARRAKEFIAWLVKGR-NH2 [G27]"
experimental_result = "98.1%"

[[record]]
binder = "HSQGTFTSDYAKYLDARRAKEFIAWLVKGRK(Palmitoyl) [G88]"
experimental_result = "118%"

[[record]]
binder = "HSQGTFTSDYAKYLDAKKAKEFIAWLVKGRG [G58]"
experimental_result = "99%"

